assay: NCI Yeast Anticancer Drug Screen. Data for the rad50 strain (AID 155);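 also: 0% = growth of vehicle-only cultures of the same strain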; conditions: S. cerevisiae rad50 strain growth inhibition; at 5.0 µM (retest, dose inferred, filed as 0.5); stronger effect = higher value
About 79,000 compounds went through this panel and 15% of them were active in at least one assay; those are over-represented in the sample as a whole.
reported.endpoint: growth inhibition (%)
Answer with a number only, understood to be in %.

Input line: Recorded growth inhibition for CC[C@]1(O)CC(OC2CC(N(C)C)C(O)C(C)O2)c2c(cc3c(c2O)C(=O)c2c(O)cccc2C3=O)[C@@H]1C(=O)OC (stereo partly specified) , please?
Output line: 50

Input line: Recorded growth inhibition for CS(=O)(=O)OCCN(CCOS(C)(=O)=O)c1ccc(C=O)cc1 , please?
Output line: 33

Input line: Recorded growth inhibition for Cc1ccccc1NC(=O)CBr , please?
Output line: 39

Input line: Recorded growth inhibition for c1ccc2c[n+](CCCCCCCCCC[n+]3ccc4ccccc4c3)ccc2c1 , please?
Output line: 67

Input line: Recorded growth inhibition for Cc1nc2ccccc2cc1C[N+]12CN3CN(CN(C3)C1)C2 , please?
Output line: -7

Input line: Recorded growth inhibition for C[CH2][Sn]([CH2]C)([O]S(C)(=O)=O)[O]S(C)(=O)=O , please?
Output line: 18
